Test Summary: Viability Counterscreen for CMV-Luciferase Assay of Inhibitors of ATXN expression; also: nearly all actives have a fitted effect of over 55% in size
Cond: HEK-293 CMV-luciferase cells viability, protease fluorescence, 24 h
In all, about 2,100 compounds went through this assay and about 320 (15%) were called active. Another 52% or so got no clear call; they are omitted. Calls follow the shape of the dose curve; as a rule, active = well fitted cell-killing curve with a large enough effect; inconclusive = small, poorly fitted or top-dose-only effect, or effect the other way; inactive = flat fitted curve, though single readings scatter. Some of the results follow.
Lab note: assign the record to one of active, inactive

Incoming: Look up the recorded call for Cc1ccc(NC(=O)CN2C(=O)c3ccccc3S2(=O)=O)cc1C in this test.
Outgoing: inactive

Incoming: Tell me the assay call for COC(=O)c1ccccc1S(=O)(=O)NNC(=O)Nc1ccccc1 please.
Outgoing: inactive

Incoming: Per the records of this test, what outcome belongs to CCOC(=O)c1c(NC(=O)COC(=O)Cn2cnc3ccccc32)sc(C)c1C ?
Outgoing: inactive

Incoming: Any idea what this test logged for COc1ccc(OCc2cccc(C(=O)Nn3cc([N+](=O)[O-])cn3)c2)cc1 ?
Outgoing: inactive

Incoming: Status in this test for COc1ccc(Cl)cc1S(=O)(=O)N1CCN(C(=O)c2n[nH]c(=O)c3ccccc23)CC1 ?
Outgoing: inactive

Incoming: Assay outcome for Cc1csc2ncnc(NC3CCN(Cc4ccccc4)CC3)c12 : what was it?
Outgoing: inactive

Incoming: Look up the recorded call for COc1cccc(NC(=O)/C=C/c2ccc(S(=O)(=O)N3CCOCC3)cc2)c1 in this test.
Outgoing: inactive

Incoming: Hi, do you know how CNc1ccc(Br)cc(C(=O)/C=C/c2ccc3c(c2)OCO3)c1=O came out in this test?
Outgoing: inactive

Incoming: Which outcome was assigned to O=C(NC1CCN(Cc2ccccc2)CC1)c1cccc(S(=O)(=O)Nc2ccc(SC(F)F)cc2)c1 in this test?
Outgoing: inactive

Incoming: Tell me the assay call for Oc1ccc(Cl)c2cccnc12 please.
Outgoing: inactive

Incoming: Please indicate how the test categorized Cc1ccc(NS(=O)(=O)c2cc3c4c(cccc4c2)C(=O)NC3=O)cc1C .
Outgoing: inactive

Incoming: Hi team, can someone confirm the assay call for Cc1cc(/C=N/n2c(COc3ccccc3)nc3ccccc3c2=O)c(O)c([N+](=O)[O-])c1 ?
Outgoing: active

Incoming: Could you please tell me the result logged for O=c1c(Cc2ccccc2)c(O)nc2n1CCS2 in this assay?
Outgoing: inactive

Incoming: Each compound tested received a call. Report the one for O=[N+]([O-])c1ccc(O)c2ncccc12 .
Outgoing: active

Incoming: Query: recorded result category for Cc1cc(C)nc(/N=C(\N)Nc2ccc(C(C)C)cc2)n1 in this test
Outgoing: inactive

Incoming: Could you please tell me the result logged for CC(C)C[C@H](NC(=O)c1[nH]cnc1C(=O)Nc1ccc(CNC(=O)OC(C)(C)C)cc1)C(=O)OCc1ccccc1 in this assay?
Outgoing: inactive

Incoming: # fetch the recorded call for O=[N+]([O-])c1cc(CN2CCN(c3ccccc3)CC2)c(O)c2ncccc12 here
Outgoing: active

Incoming: Entry CC(=O)c1ccc(S(=O)(=O)N2CCN(CCOc3ccc(Br)cc3)CC2)cc1 : call = ?
Outgoing: inactive

Incoming: Hi, do you know how COc1cc(/C=N/Nc2ccc(Cl)c(C(=O)O)c2)ccc1OC(=O)c1ccco1 came out in this test?
Outgoing: inactive

Incoming: Hi team, can someone confirm the assay call for CC(C)(C)c1ccc(OCCn2nc(C(=O)O)c3ccccc3c2=O)cc1 ?
Outgoing: inactive

Incoming: What was the test verdict on CN(C)CCCN(C(=O)c1ccc(S(=O)(=O)N2CCCCCC2)cc1)c1nc2ccc(Br)cc2s1 ?
Outgoing: inactive

====

Test Summary: Viability Counterscreen for CMV-Luciferase Assay of Inhibitors of ATXN expression; also: nearly all actives have a fitted effect of over 55% in size
Cond: HEK-293 CMV-luciferase cells viability, protease fluorescence, 24 h
Among all 2,100 compounds or so, about 320 (15%) were called active. Not shown: some 52% with an inconclusive outcome. Calls follow the shape of the dose curve; as a rule, active = well fitted cell-killing curve with a large enough effect; inconclusive = small, poorly fitted or top-dose-only effect, or effect the other way; inactive = flat fitted curve, though single readings scatter. This is one part of the list.
Bench note: report the call from active, inactive

Incoming: Assay outcome for CCOC(=O)c1c(NC(=O)C(Sc2ccccc2)c2ccccc2)sc(C(=O)N(C)C)c1C (stereo not given) : what was it?
Outgoing: inactive

Incoming: Per the records of this test, what outcome belongs to COc1cc2c(O)c3c(c(-c4ccc5c(c4)OCO5)c2cc1OC)C(=O)OC3 ?
Outgoing: inactive

Incoming: Per the records of this test, what outcome belongs to NC(=O)CC(NC(=O)Cc1ccc(Br)cc1)c1ccc(NC2CCCC2)c([N+](=O)[O-])c1 (stereo not given) ?
Outgoing: active

Incoming: I'd appreciate the recorded outcome for COc1ccc([C@@]2(C(C)C)ON(c3ccccc3C(F)(F)F)C2=O)cc1 from this test.
Outgoing: inactive

Incoming: I'd appreciate the recorded outcome for O=C(N/N=C\c1cc(Br)ccc1O)c1ccc(S(=O)(=O)N2CCCCC2)cc1 from this test.
Outgoing: inactive

Incoming: Recorded test outcome, item Cc1cc(C)c(C(=O)N2CCCC(N3CCN(c4cccc(C(F)(F)F)c4)CC3)C2)o1 (stereo not given)
Outgoing: inactive

Incoming: Entry COc1ccc(C(=O)c2c(C)c3ccccc3n2CC(O)CNC(C)C)cc1 (stereo not given) : call = ?
Outgoing: active

Incoming: Which outcome was entered for the molecule Cn1cc(SCC(=O)Nc2nc3ccccc3s2)c2ccccc21 in this test?
Outgoing: inactive

Incoming: Recorded test outcome, item CCOc1ccc(NC(=O)Nc2nnc(CC(=O)NCc3ccccc3)s2)cc1
Outgoing: inactive

Incoming: Answer briefly: the call reported for O=C(N/N=C\c1cc(Cl)ccc1O)c1ccc(S(=O)(=O)N2CCCCC2)cc1 in this assay.
Outgoing: inactive

====

Test Summary: Viability Counterscreen for CMV-Luciferase Assay of Inhibitors of ATXN expression; also: nearly all actives have a fitted effect of over 55% in size
Cond: HEK-293 CMV-luciferase cells viability, protease fluorescence, 24 h
In all, about 2,100 compounds went through this assay and about 320 (15%) were called active. Another 52% or so got no clear call; they are omitted. Calls come from the whole dose curve; as a rule, active = well fitted cell-killing curve with a large enough effect; inconclusive = small, poorly fitted or top-dose-only effect, or effect the other way; inactive = flat fitted curve, though single readings scatter. This is one part of the list.
Choose the fitting class; nothing outside 1 (yes) for active, 0 (no) for inactive is accepted.

Incoming: Record lookup: outcome of this test for O=C1/C(=C\c2cc(Cl)c(O)c(Cl)c2)SC(=S)N1Cc1ccccc1 ?
Outgoing: 0 (no)

Incoming: Each compound tested received a call. Report the one for CCCc1cc(=O)[nH]c(-n2[nH]c3c(c2=O)CCCC3)n1 .
Outgoing: 1 (yes)

Incoming: Hi, sorry to bother you, what did the test record for COc1ccc(CCn2c(C)cc(C(=O)CSc3nc(N)cc(=O)[nH]3)c2C)cc1 ?
Outgoing: 0 (no)

Incoming: So what was the verdict on Cc1c(N/N=C(\C#N)C(=O)c2ccccc2)c(=O)n(-c2ccccc2)n1C in this test?
Outgoing: 1 (yes)

Incoming: Just curious, what result did Cc1ccc(CN(C)C(=O)CN2C(=O)NC(c3ccccc3)(c3ccccc3)C2=O)c(C)c1 get here?
Outgoing: 0 (no)

====

Test Summary: Viability Counterscreen for CMV-Luciferase Assay of Inhibitors of ATXN expression; also: nearly all actives have a fitted effect of over 55% in size; also: potency is read from the fitted curve at half-maximal effect
Cond: HEK-293 CMV-luciferase cells viability, protease fluorescence, 24 h
Hit rate of the full screen: of about 2,100 compounds, about 320 (15%) were called active. Roughly 52% stayed inconclusive and do not appear here. The list shows a part of the results.
Measured Endpoint: Potency

Consider the following illustrative entries.
Compound: Cc1ccc(OCC(O)Cn2c(=N)n(CCN3CCCCC3)c3ccccc32)cc1 (stereo not given)
Potency: inactive

Compound: CCOC(=O)C1=CCN(S(=O)(=O)c2ccc(C)cc2)C1c1cccc(Cl)c1 (stereo not given)
Potency: inactive

Compound: CCN1CC2=C(OC(N)=C(C#N)C2c2cccs2)/C(=C\c2cccs2)C1 (stereo not given)
Potency: inactive

Compound: C/[N+]([O-])=C\c1cccc(OCCN2CCN(c3ncc(C(F)(F)F)cc3Cl)CC2)c1
Potency: inactive

Compound: CCOc1ccc(CCNC(=O)c2ccc(OCc3c(C)noc3C)cc2)cc1OCC
Potency: inactive

Incoming: May I ask what Potency has been recorded for N=c1n(CCN2CCCCC2)c2ccccc2n1CC(O)c1ccc(Cl)c(Cl)c1 (stereo not given) ?
Outgoing: 20 µM (active)

Incoming: Recorded Potency for CCCn1ncc(CN2CCC(C(=O)Nc3cccc(-c4cccc(F)c4)c3)CC2)c1C , please?
Outgoing: inactive

Incoming: # input compound: COc1cc(NS(=O)(=O)c2ccc(N/C=C(\C#N)c3nc4cc(Cl)ccc4o3)cc2)nc(OC)n1 ; wanted: its Potency
Outgoing: 14.1 µM (active)

Incoming: Name the recorded Potency for O=C(NC(c1ccccc1)c1c(O)ccc2ccccc12)c1ccccc1Cl (stereo not given) .
Outgoing: inactive

Incoming: Report Potency for CCOC(=O)c1sc2nc(CSc3ccccc3)nc(NCCN(C)C)c2c1C please.
Outgoing: inactive

====

Test Summary: Viability Counterscreen for CMV-Luciferase Assay of Inhibitors of ATXN expression; also: nearly all actives have a fitted effect of over 55% in size
Cond: HEK-293 CMV-luciferase cells viability, protease fluorescence, 24 h
The campaign covered roughly 2,100 compounds. About 320 (15%) were called active. Not shown: some 52% with an inconclusive outcome. Calls come from the whole dose curve; as a rule, active = well fitted cell-killing curve with a large enough effect; inconclusive = small, poorly fitted or top-dose-only effect, or effect the other way; inactive = flat fitted curve, though single readings scatter. The list shows a part of the results.
// allowed return values: active, inactive

Incoming: Assay result, entry Cc1cc(C)c2c(CC(=O)Nc3ccc(Cl)cn3)coc2c1 — outcome?
Outgoing: inactive

Incoming: Per the assay record, what outcome was assigned to O=C(Nc1nonc1-c1ccc(Cl)cc1)c1ccccc1 ?
Outgoing: inactive

Incoming: How was O=C1C=C(NCCc2cc(Br)c(O)c(Br)c2)C(=O)c2ncccc21 classified in this test?
Outgoing: active

Incoming: Which outcome was entered for the molecule O=C(COC(=O)c1cc([N+](=O)[O-])ccc1N1CCOCC1)Nc1ccc(Cl)cn1 in this test?
Outgoing: active

Incoming: Just curious, what result did CCc1cc2c(=O)c(-c3cnn(-c4ccccc4)c3)coc2c(CN2CCOCC2)c1O get here?
Outgoing: inactive
